Test system: pHCA
assay-text: Percent conversion of substrate by E. coli cells expressing sulfotransferases
Type: cell-based, Escherichia coli
settings: 100 μM pHCA, M9 medium, overnight 37° C.
experimental-readout: percent conversion of pHCA (%)
Express the result in % but write the number alone.

Recorded percent conversion of pHCA of SULT1A1 Equus caballus: aryl sulfotransferase SULT1A1 Equus caballus (SEQ ID NO: 3) (protein, listed as Equus caballus) MELIQDTSRPPLKYVKGVPLIKYFAEALGPLQSFQARPDDLLISTYPKSGTTWVSEILDMIYHGGDLEKCRRAPIFIRVPFLEFKAPEIPSGVEVLKDTPAPRLLKTHLPLSLLPQTLLDQKVKVVYLARNAKDVAVSYYHFYRMAKVHPDPGTWDSFLEKFMAGEVSYGSWYKHVQEWWELSHTHPVLYLFYEDMKENPKKEIQKILEFVGRSLPEETLDRIVQHTSFKEMKKNPMANYSTIPCDIMDHNISAFMRKGIAGDWKNTFTVAQNEHFDTDYAEKMAGCKLSFRSEV , please.
21

Recorded percent conversion of pHCA of SULT1A1 Homo sapiens: aryl sulfotransferase SULT1A1 Homo sapiens (SEQ ID NO: 2) (protein, listed as Homo sapiens) MELIQDTSRPPLEYVKGVPLIKYFAEALGPLQSFQARPDDLLISTYPKSGTTWVSQILDMIYQGGDLEKCHRAPIFMRVPFLEFKAPGIPSGMETLKDTPAPRLLKTHLPLALLPQTLLDQKVKVVYVARNAKDVAVSYYHFYHMAKVHPEPGTWDSFLEKFMVGEVSYGSWYQHVQEWWELSRTHPVLYLFYEDMKENPKREIQKILEFVGRSLPEETVDFMVQHTSFKEMKKNPMTNYTTVPQEFMDHSISPFMRKGMAGDWKTTFTVAQNERFDADYAEKMAGCSLSFRSEL , please.
39

Recorded percent conversion of pHCA of SULT1A1 Canis lupus familiaris: aryl sulfotransferase SULT1A1 Canis lupus familiaris (SEQ ID NO: 5) (protein, listed as Canis lupus) MEDIPDTSRPPLKYVKGIPLIKYFAEALESLQDFQAQPDDLLISTYPKSGTTWVSEILDMIYQDGDVEKCRRAPVFIRVPFLEFKAPGIPTGLEVLKDTPAPRLIKTHLPLALLPQTLLDQKVKVVYVARNAKDVAVSYYHFYRMAKVHPDPDTWDSFLEKFMAGEVSYGSWYQHVQEWWELSHTHPVLYLFYEDMKENPKREIQKILKFVGRSLPEETVDLIVQHTSFKEMKNNSMANYTTLSPDIMDHSISAFMRKGISGDWKTTFTVAQNERFDADYAKKMEGCGLSFRTQL , please.
34
